- method_description: yeast display, Sf9 membrane polyspecificity reagent, FACS + sequencing; frameworks hold sequencing errors
readout_name: polyreactivity (PSR sort gate)

sequence_entry	readout_name	result
QVQLVESGGGLVQAGGSLRLSCAASGSIFRRNAMGWYRQAPGKERELVAGISGGGSTYYADSVKGRFTISRDNAKNTVYLQMNSLKPEDTAVYFCATDKHFRWAGFDYWGQGTQVTVSS	polyreactivity (PSR sort gate)	low polyreactivity
QVHHVESGGGLVQAGGSLRLSCAASGIIFGYNVMGWYRQEPGKVRELVAAMRYSGGSTYYADSVKGSFTISRDNAKNTVYLQMNSLKPEDTAVYYCATYSAVRELLWGNGYWGQGTQVTVSS	polyreactivity (PSR sort gate)	high polyreactivity
QVQLVESGGGLVQAGGSLRLICAASGLTFLYYTMVWYRQEPGNERELVAAITSGASTNYADSVKGRFTISRDNAKNTVYLQMNSLIPEDTAVYYCAARYVGPFAWYSGYDYWGQGTQVTVSS	polyreactivity (PSR sort gate)	low polyreactivity
QVQLVESGGGLVQAGGSLRLSCAASGRTFPYNARGLYRQAPGKERELVASITRRGGSTYYADSVKGRFTISLDNAKNSVYLQMNSVKPEDTAVYYCNAAYPYVRRYKYGYWGQGTLVTVSS	polyreactivity (PSR sort gate)	high polyreactivity
QVQLVESGGGLVQAGGSLRLSCAASGFTFLPYVMGWYRQAPGKERELVAAISSSGGSTYYADSVKGRFTISRDNAKNTVYLQMNSLKPEDTAVYYCAKEIGVRRRDYEDYEYWGQGTQVTVSS	polyreactivity (PSR sort gate)	low polyreactivity
QVQLVESGGGLVQAGGSLRLSCAASGFTFPANAMGWYRQAPGKERELVATITWSGGNTYYADSVKGRFTISRDNAKNTVYLQMNSLKPEDTAVYYCAKDYDPYHEQQSSEHDDYWGQGTQVTVSS	polyreactivity (PSR sort gate)	low polyreactivity
QVHLQESAGGLVQAGGSLRLTCSASGYISFDASMGWYRQAPGKERELAASIPKGSSTNYADSVKGRFTIRDNATITVYLQMNSLQPEDTAVCYCAVTYPYWGDYTYWGQGTQVTVSC	polyreactivity (PSR sort gate)	low polyreactivity
QVQLVESGGGLVQAGGSLRLSCAASGFTFFIYVMGWYRQAPGKEREYVAAISSSGDSTYYADSVKGRFTISRDNAKNTVYLQMNSLIPEDTAVYYCNAGDKVSSYWYDYWGQGTQVTVSS	polyreactivity (PSR sort gate)	low polyreactivity
QVQLVESGGGLVQAGGSLRLSCAASGLTFQVYAMGWYRQAPGKERELVAGITRGGRTYYADSVKGRFTISRDNAKNTVYLQMNSLKPEDTAVYYCNADAPYGGPSWAKSRYEYWGQGTQVTVSS	polyreactivity (PSR sort gate)	low polyreactivity
QVQLVESGGGLVQAGGSLRLSCAASGRTFKCYAMGWYRQAPGKETELVAAISYRGGSTYYADSVKGRFTISRDNAKNTVYLQIKRLKPEDTAVYYCAARWNRGRYDYWGQGTQVTESS	polyreactivity (PSR sort gate)	high polyreactivity
QVQLVESGGGLVQAGGSLRLSCAASGSTFRYYAMGWYRQAPGKERELVAAISTGGTTYYADSVKGRFTISRENAKNTVYLQMNSLKPEDTAVYYCNTVRLFDYGYWGQGTQVTVSS	polyreactivity (PSR sort gate)	low polyreactivity

====

- method_description: yeast display, Sf9 membrane polyspecificity reagent, FACS + sequencing; frameworks hold sequencing errors

sequence_entry	polyreactivity (PSR sort gate)
QVQLVESGGGLVQAGGSLRLSCAASGRIFAWNAMGWYRQAPGKERELVARIRVSGGRTYYADSVKGRFTISRDNAKNTVYLQMKSLKPDDTAVYYCNAYLRSGSMDYWGQGTQVTVSS	high polyreactivity
QVQLVESGGGLVQAGGSLRLSCAASGFTLGTYAMGWYRQAPGKERELVASITVTGGSTYYADSVKGRFTISRDNAKNTVYLQMNSLKPEDTAVYYCAASYQHFRSVNPYDSWGQGTQVTVSS	low polyreactivity
QVQLVESGGGLVQAGGSLRLSCAASGSISVWYVMGWYRQAPGKERELVAAITRSGGSTFYADSVKGRLTISRDNAKNTVYLQMNSLKPEDTAVYYCAADVGVAWGYGYWGQGTQVTVSS	low polyreactivity
QVQLVESGGGLVQAGGSLRLSCAASGSIFYFYAMGWYRQAPGKERELVAAISSRGTSTYYADSVKGRFTISRDNAKNTVYLQMNSLKPEDTAVYYCAAQIYVYYQRRPPYDYWGQGTQVTVSS	high polyreactivity
QVQLVESGGGLVQAGGSLRLSCAASGFIFSYNVMGWYRQAPGKERELVAAISSGGGRTYYADSVKGRFTISRDNAKNTVYLQMNSLKPEDTAVYYCNAYRLSRVQLYYWGQGTQVTVSS	high polyreactivity
QVHLVESGGGLVQAGGRLRLSCAASGIIFRLYGMGWYRQAPGKEREFVATITWRGGRTNYADSVKGRFTIARDNAKNTVYLQMNSLKPEDTAVYYCAKVVRYARSNEYDSWGQGTQVTVSS	low polyreactivity
QVQLVESGGGLVQAGGSLRLSCAASGSIFWRNAIGWYRQAPRKERELVAAISRVGSTNYADSVKGRFTISRDNAKNTVYLQMTSLKPEDTAVYYCAKDSIWRVYEYDYWGQGTQVTVSS	low polyreactivity
QVQLVESGGGLVQAGGSLRLSCAASGSIFYRYAMGWYRQAPGKERELVAAISDRSGSTYYADSVKGRFTISRDNAKNTVYLQMNSLKPEDTAVYYCAAAYNYRAAGYGLSRYYYWGQGTQVTVSS	high polyreactivity
QVQLVESGGGLVQAGGSLRLICAASGSIFRSYSMGWYRQAPGKERELVAGINRSGASTYYADSVKGRFTISRDNAKNTVYLQMNSMKPEDTAVSYCNARAQRGGYNYWGQGTQVTVSS	high polyreactivity
QVQLVESGGGLVQAGGSLRLSCDASGFTFDDYAMGWYRQAHGNEMELVAAISSSRDSTYNADSVKGRFTISRDYEKNTVYLQINSLKPQDTAVYYCAAEYDREEYSGYDYWGEGTQVTVSS	low polyreactivity
QVQLVESGGGLVQAGGSLRLSCAASGLIIPVYVMGWYRQAPGKERELVADITTVGSTYADSVKGRFTISRDNAKNTVYLQMNSLQPEDTAVYYCAADPPAPQYWWDHGNYWGQGTQVTVSS	low polyreactivity
QVQLVESGGGLVQAGGSLRLSCAASGFIYGRNAMGWYRQAPGKERELVAAINWRGGSTYYADSVKGRFTISRDNAKNTVYLQMNSLKAEDTAVYYCAARAPYRYGYDYWGQGTQVTLSS	high polyreactivity
QLQHVESGGCLDQAGGSLRLSCAASGGIIPYRGWYRQAPGKQRELVASITSSGGSTYYADSVKGRFTISRDNAKNTVYLQMNSLKPEDTAVFYCAADPDFYKSVQYDYWGQGTQVTVSS	low polyreactivity
QVQLVESGGGLVQAGGSLRLSCAASGRIIGNYAMGWYRQAPGKERELVAAISNGGSTNYADSVKGRFTISRDNAKNTVYLQMNSLKPEDTAVYYCNADQWAVIWGYMVLDFYYWGQGTQVTVSS	low polyreactivity
QVQLVESGGGLVQAGGSLRLSCAASGRIFRWYAMGWYRQAPGKERELVATISSTGGSTYYADSVKGRFTISRDNAKNTVYLQMNSLKPEDTAVYYCNALSFITITVYSEGDYWGQGTQVTVSS	low polyreactivity
QVQLVESGGGLVQAGGSLRLSCAASGRIFARNAMGWSRQAPGKERELVAAISGGGNTYADSVKGRFTISRDNAKNTVYLQMNSLKPEDTAVYYCARVVHFRGVRYDYWGQGTQVTVSS	high polyreactivity
QVQLVESGGGLVQAGGSLRLSCAASAYIYRGYPLGRYRQAPGKERELVAAISNIGGTTYYADSVKGRFTISRDNAKNTVYLQMISLKREDTEVYYCAAEHSYWGWAYGYWGQGTQVTLSS	high polyreactivity
QVQLVESGGGLVQAGGSLRLSCAASGGTLRGNAMGWYRQAPGKERELVAAISGSAGRTYYADSVKGRFTISRDNAKNTVYLQMTSLKPVDTAVYYCAASRRVVKMDYWGQGTQVTVSS	high polyreactivity
QVQLVESGGGLVQAGGSLRLSCAASGRIFNRYVMGWYRQAPGKERELVAAISVRGASTYYADSVKGRFTISRDNAKNTVYLQMNSLKPEDTAVYYCATAGYRLLDYWGEGTQVTVSS	high polyreactivity
QVQLVESGGGLVQAGGSLRLSCAASGSIFLQNAMGWYRQAPGKERELVAAITNGGSTNYADSVKGRFTISRDNAKHTVYLQLNSLKPEDTAVYYCAAYPLYTGSYDRGGYWGQGTQVTVSS	low polyreactivity
QVQLVESGGGLVQAGGSLRLSCAASGRIFRDYAMGWYRLAPGKERELVAAITLSGTTTYYADSVKGRFTISRDNAKNTVYVQMNSLKPEDTAVYYCNAPRYRYRPHEGDYWGQGTQVTVSS	low polyreactivity
